Origin of the recorded values: patent US10722520B2

# MIC per entry
Test system: K. pneumoniae BAA-1898
measurement-protocol: MIC of compound alone, broth microdilution
Type: cell-based
condition-description: Klebsiella pneumoniae, BAA1898; strain BAA-1898: K. pneumoniae; TEM-1, SHV-11, SHV-12, KPC-2; read-out: MIC compounds of the invention alone
observed-property: MIC

> print(dat)
                                   molecule   result
1  O=C1N2CC(n3nccn3)=CC(C2)N1OS(=O)(=O)O (stereo not shown) [Example 3]  8 µg/mL
2  O=C1N2CC(n3ccnn3)=C[C@H](C2)N1OS(=O)(=O)O [Example 6]  2 µg/mL
3  O=C1N2CC(n3cncn3)=CC(C2)N1OS(=O)(=O)[O-].[Na+] (stereo not shown) [Example 5]  4 µg/mL
4  O=C1N2CC(n3ccsc3=O)=CC(C2)N1OS(=O)(=O)[O-].[Na+] (stereo not shown) [Example 1]  8 µg/mL

* * *

experimental-system: SHV-1 (Klebsiella pneumoniae, UniProt P0AD64)
pIC50: −log10 of the molar value.
# pIC50 per entry
observed-property: pIC50

> print(dat)
                                   compound  numeric.value
1  O=C(NOCCO)c1ccn(C2=CC3CN(C2)C(=O)N3OS(=O)(=O)[O-])n1.[Na+] (stereo not shown) [Example 47]           8.04
2  O=C1N2CC(n3ccc(CO)n3)=CC(C2)N1OS(=O)(=O)O (stereo not shown) [Example 12]           8.68
3  NS(=O)(=O)c1cnn(C2=CC3CN(C2)C(=O)N3OS(=O)(=O)[O-])c1.[Na+] (stereo not shown) [Example 16]           8.47
4  O=C1N2CC(n3ccsc3=O)=CC(C2)N1OS(=O)(=O)[O-].[Na+] (stereo not shown) [Example 1]           8.82

* * *

experimental-system: AmpC (P99) (Enterobacter cloacae, UniProt P05364)
measurement-protocol: biochemical
# IC50 per entry
observed-property: IC50 (nM)

> print(dat)
                                    molecule                       experimental.system  numeric.value
 1  NC(=O)CNCc1cn(C2=CC3CN(C2)C(=O)N3OS(=O)(=O)O)nn1 (centres unmarked)  AmpC (P99) (Enterobacter cloacae, UniProt P05364)             14
 2  O=C1N2CC(n3cc(CNCCO)nn3)=CC(C2)N1OS(=O)(=O)O (centres unmarked)  AmpC (P99) (Enterobacter cloacae, UniProt P05364)             38
 3  O=C1N2CC(n3ccnc3CO)=CC(C2)N1OS(=O)(=O)[O-].[Na+] (centres unmarked)  AmpC (P99) (Enterobacter cloacae, UniProt P05364)             94
 4  NC(=O)Cc1ccn(C2=CC3CN(C2)C(=O)N3OS(=O)(=O)[O-])n1.[Na+] (centres unmarked)  AmpC (P99) (Enterobacter cloacae, UniProt P05364)             32
 5  NC(=O)c1ccn(C2=CC3CN(C2)C(=O)N3OS(=O)(=O)[O-])n1.[Na+] (centres unmarked)  AmpC (P99) (Enterobacter cloacae, UniProt P05364)             19
 6  O=C(Nc1ccn(C2=CC3CN(C2)C(=O)N3OS(=O)(=O)[O-])n1)c1nccs1.[Na+] (centres unmarked)  AmpC (P99) (Enterobacter cloacae, UniProt P05364)             10
 7  O=C(CCO)Nc1ccn(C2=CC3CN(C2)C(=O)N3OS(=O)(=O)[O-])n1.[Na+] (centres unmarked)  AmpC (P99) (Enterobacter cloacae, UniProt P05364)             17
 8  NCCONC(=O)c1cn(C2=CC3CN(C2)C(=O)N3OS(=O)(=O)O)nn1 (centres unmarked)  AmpC (P99) (Enterobacter cloacae, UniProt P05364)             19
 9  O=C1N2CC(n3cc(N4CCNCC4)cn3)=CC(C2)N1OS(=O)(=O)O (centres unmarked)  AmpC (P99) (Enterobacter cloacae, UniProt P05364)             86
10  O=C(N[C@H]1CCNC1)c1ccn(C2=CC3CN(C2)C(=O)N3OS(=O)(=O)O)n1 (some centres unmarked)  AmpC (P99) (Enterobacter cloacae, UniProt P05364)             32
11  O=C1N2CC(n3nccc3CCO)=CC(C2)N1OS(=O)(=O)[O-].[Na+] (centres unmarked)  AmpC (P99) (Enterobacter cloacae, UniProt P05364)            170
12  O=C(Nc1ncco1)c1ccn(C2=CC3CN(C2)C(=O)N3OS(=O)(=O)[O-])n1.[Na+] (centres unmarked)  AmpC (P99) (Enterobacter cloacae, UniProt P05364)            9.7
13  O=C1N2CC(n3ncnn3)=CC(C2)N1OS(=O)(=O)[O-].[Na+] (centres unmarked)  AmpC (P99) (Enterobacter cloacae, UniProt P05364)             13
14  O=C(Nc1ccccn1)c1ccn(C2=CC3CN(C2)C(=O)N3OS(=O)(=O)[O-])n1.[Na+] (centres unmarked)  AmpC (P99) (Enterobacter cloacae, UniProt P05364)            7.9
15  O=C1N2CC(n3ccc(CO)n3)=CC(C2)N1OS(=O)(=O)O (centres unmarked)  AmpC (P99) (Enterobacter cloacae, UniProt P05364)             15
16  O=C1N2CC(n3cc(F)cn3)=CC(C2)N1OS(=O)(=O)[O-].[Na+] (centres unmarked) [Example 14, sulfate]  AmpC (P99) (Enterobacter cloacae, UniProt P05364)             17
17  O=C(CO)Nc1ccn(C2=CC3CN(C2)C(=O)N3OS(=O)(=O)[O-])n1.[Na+] (centres unmarked)  AmpC (P99) (Enterobacter cloacae, UniProt P05364)             12
